Target: human CTPS1 (Homo sapiens)
Construct: purchased Proteros biostructures GmbH
Sequence (P17812 1-591): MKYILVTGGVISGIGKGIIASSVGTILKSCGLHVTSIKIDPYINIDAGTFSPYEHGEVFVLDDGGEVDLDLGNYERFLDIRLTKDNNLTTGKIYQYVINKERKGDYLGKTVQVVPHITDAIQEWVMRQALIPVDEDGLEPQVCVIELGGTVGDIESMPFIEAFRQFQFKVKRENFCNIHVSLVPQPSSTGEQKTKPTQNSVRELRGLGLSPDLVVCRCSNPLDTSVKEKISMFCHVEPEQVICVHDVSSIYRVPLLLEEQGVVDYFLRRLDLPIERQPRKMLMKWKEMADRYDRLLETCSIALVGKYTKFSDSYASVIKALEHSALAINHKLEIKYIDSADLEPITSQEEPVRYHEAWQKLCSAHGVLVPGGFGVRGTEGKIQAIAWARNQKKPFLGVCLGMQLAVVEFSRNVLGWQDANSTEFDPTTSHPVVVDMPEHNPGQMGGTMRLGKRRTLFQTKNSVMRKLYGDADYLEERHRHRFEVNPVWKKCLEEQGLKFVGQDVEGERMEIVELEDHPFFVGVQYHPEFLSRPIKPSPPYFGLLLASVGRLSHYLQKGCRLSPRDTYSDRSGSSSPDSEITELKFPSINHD
Experiment: Human CTPS1 enzyme inhibition (ADP-Glo Max assay)
Type: biochemical
Settings: Table 23; ADP-Glo Max assay; read-out: CTPS1 (Human CTPS1 Enzyme Inhibition data grouped by potency range, IC50)
METRIC: IC50

COc1cncc(-c2ccc(NC(=O)C(C)(C)c3ccnc(NS(=O)(=O)C4CCC4)n3)cc2)n1	100 to 1000 nM
CCOc1cncc(-c2ccc(NC(=O)C(OC)c3ccnc(NS(=O)(=O)C4CC4)n3)cc2)n1 (centres unmarked)	≤ 100 nM
CCOc1cncc(-c2ccc(NC(=O)C3(c4ccnc(NS(C)(=O)=O)n4)CCNCC3)nc2)n1	100 to 1000 nM
CCOc1cncc(-c2ccc(NC(=O)C(C)(C)c3ccnc(NS(=O)(=O)C4CC4)n3)c(Cl)c2)n1	≤ 100 nM
CC(C)Oc1cncc(-c2ccc(NC(=O)C(C)(C)c3ccnc(NS(=O)(=O)C4CCC4)n3)c(F)c2)n1	100 to 1000 nM
CCOc1cncc(-c2ccc(NC(=O)C3(c4ccnc(NS(=O)(=O)C5CC5)n4)CCOCC3)c(F)c2)n1	≤ 100 nM

query: Tell me the measured IC50 of CC(C)(C(=O)Nc1ccc(-c2cncc(F)c2)cc1)c1cccc(NS(=O)(=O)C2CC2)n1 , please.
result: 1000 to 10000 nM

query: Tell me the measured IC50 of COc1cncc(-c2ccc(NC(=O)C(C)(C)c3cccc(NS(=O)(=O)C4CC4)n3)cc2)n1 , please.
result: 100 to 1000 nM

---

target: human CTPS1 (Homo sapiens, UniProt P17812); construct: purchased Proteros biostructures GmbH; test: Human CTPS1 enzyme inhibition (ADP-Glo Max assay); format: biochemical; conditions: Table 23; ADP-Glo Max assay; read-out: CTPS1 (Human CTPS1 Enzyme Inhibition data grouped by potency range, IC50)
pIC50: −log10 of the molar value.
METRIC: pIC50

CCC(C(=O)Nc1ccc(-c2cncc(Cl)c2)cn1)c1ccnc(NS(=O)(=O)C2CC2)n1 (centres unmarked)	≥ 7.00
CC(C)(C(=O)Nc1ccc(-c2cncnc2)cc1)c1ccnc(NS(=O)(=O)C2CC2)n1	5.00 to 6.00
CCS(=O)(=O)Nc1cncc(CC(=O)Nc2ccc(-c3cccnc3)cc2)n1	5.00 to 6.00
CC(C)(C(=O)Nc1ccc(-c2cccnc2)cn1)c1ccnc(NS(=O)(=O)C2CC2)n1	5.00 to 6.00

query: Tell me the measured pIC50 of Cc1cncc(-c2ccc(NC(=O)C(C)(C)c3ccnc(NS(C)(=O)=O)n3)c(C)c2)n1 , please.
result: 5.00 to 6.00

---

Examples of molecules with documented IC50 follow.
biological target: human CTPS1 (Homo sapiens); construct: purchased Proteros biostructures GmbH; assay: Human CTPS1 enzyme inhibition (ADP-Glo Max assay); format: biochemical; settings: Table 23; ADP-Glo Max assay; read-out: CTPS1 (Human CTPS1 Enzyme Inhibition data grouped by potency range, IC50)

Some molecules with known IC50 results, for comparison:
CCOc1cncc(-c2ccc(NC(=O)C(CCOC)c3ccnc(NS(=O)(=O)C4CC4)n3)c(F)c2)n1 (stereo not drawn)	≤ 100 nM
COc1cncc(-c2ccc(NC(=O)Cc3cccc(NS(=O)(=O)C4CC4)n3)cc2)n1	≤ 100 nM
CCOc1cncc(-c2cnc(NC(=O)C(CCOC)c3ccnc(NS(=O)(=O)C4CC4)n3)c(F)c2)n1 (stereo not drawn)	≤ 100 nM
CCOc1cncc(-c2ccc(NC(=O)C3(c4ccnc(NS(=O)(=O)C5CC5)n4)CCCC3)nc2)n1	≤ 100 nM
CC(C)Oc1cncc(-c2ccc(C(=O)NC(C)(C)c3cncc(NS(=O)(=O)C4CC4)n3)c(F)c2)n1	100 to 1000 nM
CC(C)(C(=O)Nc1ccc(-c2cccc(Cl)c2)cc1)c1ccnc(NS(=O)(=O)C2CC2)n1	1000 to 10000 nM
O=C(Cc1cccc(NS(=O)(=O)C2CC2)n1)Nc1ccc(-c2cncc(C(F)(F)F)n2)cc1	100 to 1000 nM
Cc1cncc(-c2ccc(NC(=O)C(C)(C)c3ccnc(NS(=O)(=O)C4CC4)n3)cc2)c1	100 to 1000 nM
CC(C)(NC(=O)c1ccc(-c2cncc(C(F)(F)F)n2)cc1)c1cncc(NS(=O)(=O)C2CC2)n1	100 to 1000 nM
CCOc1cncc(-c2ccc(NC(=O)C(F)(CC)c3ccnc(NS(C)(=O)=O)n3)nc2)n1 (stereo not drawn) [Example P151]	≤ 100 nM

query: Tell me the measured IC50 of CCC(C(=O)Nc1ncc(-c2cncc(OC)n2)cc1F)c1ccnc(NS(=O)(=O)C2CC2)n1 (stereo not drawn) , please.
result: 100 to 1000 nM

query: Tell me the measured IC50 of CCOc1cncc(-c2ccc(NC(=O)C3(c4ccnc(NS(=O)(=O)C5CC5)n4)CC3)cc2)n1 , please.
result: ≤ 100 nM

---

Target: human CTPS1 (Homo sapiens)
Construct: purchased Proteros biostructures GmbH
Sequence (P17812 1-591): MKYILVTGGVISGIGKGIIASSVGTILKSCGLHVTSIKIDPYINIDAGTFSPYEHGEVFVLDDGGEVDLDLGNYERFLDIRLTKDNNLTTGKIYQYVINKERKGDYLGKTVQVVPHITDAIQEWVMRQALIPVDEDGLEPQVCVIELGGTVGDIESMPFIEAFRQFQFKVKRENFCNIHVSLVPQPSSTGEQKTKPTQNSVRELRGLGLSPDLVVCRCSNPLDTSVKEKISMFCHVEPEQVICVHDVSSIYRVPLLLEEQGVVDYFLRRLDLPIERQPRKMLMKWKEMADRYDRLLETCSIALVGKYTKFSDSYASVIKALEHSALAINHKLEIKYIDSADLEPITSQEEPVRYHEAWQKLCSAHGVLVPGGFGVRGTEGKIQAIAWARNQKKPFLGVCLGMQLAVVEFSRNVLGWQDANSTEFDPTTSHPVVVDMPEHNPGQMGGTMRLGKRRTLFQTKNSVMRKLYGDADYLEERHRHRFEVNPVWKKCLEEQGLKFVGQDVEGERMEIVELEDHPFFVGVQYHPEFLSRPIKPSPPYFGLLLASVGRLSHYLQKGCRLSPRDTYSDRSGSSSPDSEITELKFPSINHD
Assay: Human CTPS1 enzyme inhibition (ADP-Glo Max assay)
Assay type: biochemical
Details: Table 23; ADP-Glo Max assay; read-out: CTPS1 (Human CTPS1 Enzyme Inhibition data grouped by potency range, IC50)
pIC50: −log10 of the molar value.
METRIC: pIC50

Some compounds with known pIC50 results, for comparison:
CCOc1cncc(-c2ccc(NC(=O)C(C)(C)c3ccnc(NS(=O)(=O)C4CC4)n3)nc2)c1 [Example P28]	6.00 to 7.00
CCOc1cncc(-c2ccc(NC(=O)C(C)(CC)c3ccnc(NS(=O)(=O)C4CC4)n3)nc2)n1 (stereo not drawn) [Example P163]	≥ 7.00
CCOc1cncc(-c2ccc(NC(=O)C3(c4ccnc(NS(=O)(=O)C5CC5)n4)CCN(C(=O)OC(C)(C)C)CC3)nc2)n1 [Example P139]	6.00 to 7.00
CC(C)c1cncc(-c2ccc(NC(=O)C(C)(C)c3ccnc(NS(=O)(=O)C4CC4)n3)cc2)n1 [Example P132]	6.00 to 7.00
CCOc1cncc(-c2ccc(NC(=O)C(C)(C)c3ccnc(NS(=O)(=O)CC)n3)c(F)c2)n1 [Example P72]	6.00 to 7.00

query: // fetch human CTPS1 (Homo sapiens) pIC50 for CC(C)(C(=O)Nc1ccc(-c2cnccn2)cc1F)c1cccc(NS(=O)(=O)C2CC2)n1 [Example P180]
result: 5.00 to 6.00
